experimental context: exposed to sunlight 30 hours; HPLC
compounds and their reported Purity (area %)
Supply the numeric figure in area %, leaving out any unit text.

Please fill in: Purity (area %) reported for CC1(C)[C@H]2CC[C@]1(CS(=O)(=O)O)C(=O)C2.CCOC(=O)C1=C(COCCN)NC(C)=C(C(=O)OC)[C@@H]1c1ccccc1Cl [(R)-Camsylate of Ref. Ex. 1, S-(−)-amlodipine (R)-camsylate] = 96.2

----------
compounds and their reported Purity (area %)
experimental context: exposed to sunlight 24 hours; HPLC
Supply the numeric figure in area %, leaving out any unit text.

// solved cases for Purity (area %) follow
[
  {
    "compound": "CCOC(=O)C1=C(COCCN)NC(C)=C(C(=O)OC)C1c1ccccc1Cl (stereo not drawn) [Nicotinate dehydrate, (s)-(−)-amlodipine nicotinate dihyrate]",
    "Purity (area %)": 98.3
  },
  {
    "compound": "CC1(C)[C@@H]2CC[C@@]1(CS(=O)(=O)O)C(=O)C2.CCOC(=O)C1=C(COCCN)NC(C)=C(C(=O)OC)[C@@H]1c1ccccc1Cl [(1S)-(+)-10-Camsylate anhydride of Ex. 2]",
    "Purity (area %)": 99.8
  }
]

Now consider a different compound.
Please fill in: Purity (area %) reported for CCOC(=O)C1=C(COCCN)NC(C)=C(C(=O)OC)[C@@H]1c1ccccc1Cl.O=S(=O)(O)c1ccccc1 [Besylate, (S)-(−)-amlodipine besylate] = 96.4

----------
experimental context: exposed to sunlight 18 hours; HPLC
molecules and their reported Purity (area %)
Supply the numeric figure in area %, leaving out any unit text.

// solved cases for Purity (area %) follow
[
  {
    "molecule": "CC1(C)[C@@H]2CC[C@@]1(CS(=O)(=O)O)C(=O)C2.CCOC(=O)C1=C(COCCN)NC(C)=C(C(=O)OC)[C@@H]1c1ccccc1Cl [(1S)-(+)-10-Camsylate anhydride of Ex. 2]",
    "measured number": 99.9
  },
  {
    "molecule": "CCOC(=O)C1=C(COCCN)NC(C)=C(C(=O)OC)[C@@H]1c1ccccc1Cl.O=S(=O)(O)c1ccccc1 [Besylate, (S)-(−)-amlodipine besylate]",
    "measured number": 98.5
  },
  {
    "molecule": "CCOC(=O)C1=C(COCCN)NC(C)=C(C(=O)OC)C1c1ccccc1Cl (stereo not drawn) [Nicotinate dehydrate, (s)-(−)-amlodipine nicotinate dihyrate]",
    "measured number": 98.3
  },
  {
    "molecule": "CC1(C)[C@H]2CC[C@]1(CS(=O)(=O)O)C(=O)C2.CCOC(=O)C1=C(COCCN)NC(C)=C(C(=O)OC)[C@@H]1c1ccccc1Cl [(R)-Camsylate of Ref. Ex. 1, S-(−)-amlodipine (R)-camsylate]",
    "measured number": 99.0
  }
]

Now consider a different molecule.
Please fill in: Purity (area %) reported for CC1(C)[C@@H]2CC[C@@]1(CS(=O)(=O)O)C(=O)C2.CCOC(=O)C1=C(COCCN)NC(C)=C(C(=O)OC)[C@@H]1c1ccccc1Cl.O [(1S)-(+)-10-Camsylate hydrate of Ex. 1] = 99.8

----------
compounds and their reported Purity (area %)
experimental context: exposed to sunlight 30 hours; HPLC
Supply the numeric figure in area %, leaving out any unit text.

// solved cases for Purity (area %) follow
[
  {
    "compound": "CC1(C)[C@@H]2CC[C@@]1(CS(=O)(=O)O)C(=O)C2.CCOC(=O)C1=C(COCCN)NC(C)=C(C(=O)OC)[C@@H]1c1ccccc1Cl [(1S)-(+)-10-Camsylate anhydride of Ex. 2]",
    "Purity (area %)": 99.7
  },
  {
    "compound": "CC1(C)[C@@H]2CC[C@@]1(CS(=O)(=O)O)C(=O)C2.CCOC(=O)C1=C(COCCN)NC(C)=C(C(=O)OC)[C@@H]1c1ccccc1Cl.O [(1S)-(+)-10-Camsylate hydrate of Ex. 1]",
    "Purity (area %)": 99.7
  },
  {
    "compound": "CCOC(=O)C1=C(COCCN)NC(C)=C(C(=O)OC)[C@@H]1c1ccccc1Cl.O=S(=O)(O)c1ccccc1 [Besylate, (S)-(−)-amlodipine besylate]",
    "Purity (area %)": 94.4
  },
  {
    "compound": "CCOC(=O)C1=C(COCCN)NC(C)=C(C(=O)OC)C1c1ccccc1Cl (stereo not drawn) [Nicotinate dehydrate, (s)-(−)-amlodipine nicotinate dihyrate]",
    "Purity (area %)": 98.2
  }
]

Now consider a different compound.
Please fill in: Purity (area %) reported for CC1(C)C2CCC1(CS(=O)(=O)O)C(=O)C2.CCOC(=O)C1=C(COCCN)NC(C)=C(C(=O)OC)[C@@H]1c1ccccc1Cl.O (racemic) [(±)-10-Camsylate hydrate of Ex. 3] = 99.4
